# ASSAY TARGET: Protein skinhead-1 (Caenorhabditis elegans, UniProt P34707)
# Sequence (P34707 whole entry): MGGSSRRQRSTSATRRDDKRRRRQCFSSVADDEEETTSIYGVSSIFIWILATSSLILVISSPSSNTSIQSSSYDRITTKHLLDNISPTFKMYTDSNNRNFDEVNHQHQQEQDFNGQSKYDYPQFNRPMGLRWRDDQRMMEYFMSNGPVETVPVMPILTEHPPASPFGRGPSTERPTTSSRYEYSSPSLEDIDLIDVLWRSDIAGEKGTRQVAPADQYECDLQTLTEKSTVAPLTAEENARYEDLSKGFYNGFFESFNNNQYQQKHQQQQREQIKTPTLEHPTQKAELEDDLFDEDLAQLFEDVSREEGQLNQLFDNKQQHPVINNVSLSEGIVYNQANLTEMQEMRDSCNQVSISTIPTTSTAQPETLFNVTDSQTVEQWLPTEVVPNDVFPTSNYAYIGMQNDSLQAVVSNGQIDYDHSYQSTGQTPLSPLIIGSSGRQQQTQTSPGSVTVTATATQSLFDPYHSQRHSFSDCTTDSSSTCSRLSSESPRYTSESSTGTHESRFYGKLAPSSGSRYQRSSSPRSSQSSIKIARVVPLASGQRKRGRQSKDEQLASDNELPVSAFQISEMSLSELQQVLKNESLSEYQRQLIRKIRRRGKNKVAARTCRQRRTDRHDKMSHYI
# Type: functional
Activity calls are given as the source filed them.
ENDPOINT: IC50

Guide cases for IC50, answers given:
Fc1ccc(-c2nc3ccc(Cl)cn3c2Cc2ccsc2)cc1 : 70.3 µM (inactive)
CCCS(=O)(=O)NCc1ccc2c(c1)cc(C)n2C : > 100 µM (inactive)
O=[N+]([O-])c1cc2c(cc1Br)-c1ccccc1C2 : > 100 µM (inactive)

// recorded IC50 for COc1ccc(C2(c3ccc(OC)cc3)NC(=O)N(CC(=O)NC3CCS(=O)(=O)C3)C2=O)cc1 (stereo not drawn) : > 100 µM (inactive)

Form field IC50, entry CCCCn1ccnc1C(=O)c1cccc(S(=O)(=O)N2c3ccccc3CC2C)c1 (stereo not drawn) : > 100 µM (inactive)

Measured IC50, CN1C(=O)N(c2ccccc2)C(Nc2nncs2)C1(C)C (stereo not drawn) : > 100 µM (inactive)

Sample O=C(c1ccc(Cl)cc1)c1cc([N+](=O)[O-])ccc1N1CCOCC1 ; IC50 observed: 56.9 µM (inactive)

Recorded IC50 (molecule COC(=O)c1c(-c2ccccc2)noc1-c1ccccc1 ): 58.6 µM (inactive)
